Listed below: IMR 32 % of Blockade @ 10 μM values for each entry.
TARGET OR TEST SYSTEM: N-type Ca^2+ Channel (Homo sapiens, UniProt Q00975)
Construct: host or cells: IMR-32 cells differentiated with dibutyryl cAMP and bromodeoxyuridine
Sequence (Q00975 whole entry): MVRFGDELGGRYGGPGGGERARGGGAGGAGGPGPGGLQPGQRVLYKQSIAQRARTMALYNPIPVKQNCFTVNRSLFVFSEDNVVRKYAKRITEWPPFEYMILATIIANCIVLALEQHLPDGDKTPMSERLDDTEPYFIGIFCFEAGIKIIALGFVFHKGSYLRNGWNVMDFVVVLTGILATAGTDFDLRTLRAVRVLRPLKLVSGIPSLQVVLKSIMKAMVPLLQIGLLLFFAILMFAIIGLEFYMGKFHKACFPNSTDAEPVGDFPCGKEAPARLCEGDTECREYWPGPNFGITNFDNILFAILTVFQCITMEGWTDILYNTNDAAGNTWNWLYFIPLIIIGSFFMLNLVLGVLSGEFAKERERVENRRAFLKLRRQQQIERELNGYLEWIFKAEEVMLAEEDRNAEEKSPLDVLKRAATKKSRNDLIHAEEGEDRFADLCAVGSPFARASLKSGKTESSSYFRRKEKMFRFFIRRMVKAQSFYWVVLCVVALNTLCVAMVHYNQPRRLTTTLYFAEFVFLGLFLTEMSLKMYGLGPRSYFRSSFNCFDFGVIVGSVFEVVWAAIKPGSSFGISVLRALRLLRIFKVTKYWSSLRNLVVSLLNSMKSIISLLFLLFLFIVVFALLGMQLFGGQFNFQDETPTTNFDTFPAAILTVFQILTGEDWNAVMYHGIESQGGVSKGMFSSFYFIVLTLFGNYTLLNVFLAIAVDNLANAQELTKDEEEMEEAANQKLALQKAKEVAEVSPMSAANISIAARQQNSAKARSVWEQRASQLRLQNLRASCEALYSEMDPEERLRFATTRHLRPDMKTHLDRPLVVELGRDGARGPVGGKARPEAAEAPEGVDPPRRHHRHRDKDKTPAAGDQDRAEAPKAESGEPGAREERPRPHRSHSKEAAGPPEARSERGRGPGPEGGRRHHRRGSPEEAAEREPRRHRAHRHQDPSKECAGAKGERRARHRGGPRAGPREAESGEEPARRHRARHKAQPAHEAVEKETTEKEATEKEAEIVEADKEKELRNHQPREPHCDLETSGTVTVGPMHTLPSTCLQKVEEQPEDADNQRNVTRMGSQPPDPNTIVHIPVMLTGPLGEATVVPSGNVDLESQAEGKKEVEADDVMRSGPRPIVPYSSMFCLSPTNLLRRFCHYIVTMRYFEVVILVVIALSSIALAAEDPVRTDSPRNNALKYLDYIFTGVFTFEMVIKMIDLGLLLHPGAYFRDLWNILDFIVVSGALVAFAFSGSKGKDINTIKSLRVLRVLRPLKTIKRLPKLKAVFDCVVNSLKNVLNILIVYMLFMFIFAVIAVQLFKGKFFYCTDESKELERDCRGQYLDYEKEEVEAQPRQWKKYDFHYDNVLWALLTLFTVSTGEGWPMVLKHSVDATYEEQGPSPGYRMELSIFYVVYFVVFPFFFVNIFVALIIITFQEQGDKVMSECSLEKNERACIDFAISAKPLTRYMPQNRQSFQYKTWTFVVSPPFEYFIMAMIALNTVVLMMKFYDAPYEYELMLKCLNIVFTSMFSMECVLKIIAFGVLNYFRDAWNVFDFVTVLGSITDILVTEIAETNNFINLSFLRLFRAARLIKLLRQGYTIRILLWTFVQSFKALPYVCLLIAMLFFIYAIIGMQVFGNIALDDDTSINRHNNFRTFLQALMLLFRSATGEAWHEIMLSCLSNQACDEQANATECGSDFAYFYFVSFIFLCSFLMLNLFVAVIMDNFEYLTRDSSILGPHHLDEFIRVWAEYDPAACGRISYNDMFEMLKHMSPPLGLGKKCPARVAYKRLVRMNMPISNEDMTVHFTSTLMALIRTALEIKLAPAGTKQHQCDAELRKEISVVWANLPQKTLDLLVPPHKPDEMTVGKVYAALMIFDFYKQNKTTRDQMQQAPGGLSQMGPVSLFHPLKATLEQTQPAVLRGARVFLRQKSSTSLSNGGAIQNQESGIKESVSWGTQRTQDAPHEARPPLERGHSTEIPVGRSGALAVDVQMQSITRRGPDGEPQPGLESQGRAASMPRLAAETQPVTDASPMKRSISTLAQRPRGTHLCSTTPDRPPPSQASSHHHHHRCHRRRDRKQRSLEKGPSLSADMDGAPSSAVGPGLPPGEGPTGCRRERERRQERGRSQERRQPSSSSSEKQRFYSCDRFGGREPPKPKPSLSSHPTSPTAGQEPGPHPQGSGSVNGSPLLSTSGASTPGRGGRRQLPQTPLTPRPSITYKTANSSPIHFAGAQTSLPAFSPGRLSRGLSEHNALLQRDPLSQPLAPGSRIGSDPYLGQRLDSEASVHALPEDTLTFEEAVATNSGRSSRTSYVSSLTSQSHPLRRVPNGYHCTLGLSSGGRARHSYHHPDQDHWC
Sequence (P54284 whole entry partner): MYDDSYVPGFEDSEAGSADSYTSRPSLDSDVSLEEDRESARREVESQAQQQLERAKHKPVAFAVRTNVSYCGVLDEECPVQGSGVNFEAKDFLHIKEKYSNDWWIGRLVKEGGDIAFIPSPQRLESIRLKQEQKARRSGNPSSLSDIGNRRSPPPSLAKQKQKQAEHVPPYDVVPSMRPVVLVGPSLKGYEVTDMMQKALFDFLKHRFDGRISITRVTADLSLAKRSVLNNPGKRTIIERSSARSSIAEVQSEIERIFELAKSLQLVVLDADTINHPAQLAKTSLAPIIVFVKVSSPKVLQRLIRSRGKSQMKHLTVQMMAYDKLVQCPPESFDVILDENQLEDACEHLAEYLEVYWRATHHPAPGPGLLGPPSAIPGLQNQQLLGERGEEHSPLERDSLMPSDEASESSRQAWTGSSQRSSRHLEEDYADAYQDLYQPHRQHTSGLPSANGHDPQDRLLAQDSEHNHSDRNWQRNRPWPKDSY
Sequence (P54289 25-946 partner limits assumed): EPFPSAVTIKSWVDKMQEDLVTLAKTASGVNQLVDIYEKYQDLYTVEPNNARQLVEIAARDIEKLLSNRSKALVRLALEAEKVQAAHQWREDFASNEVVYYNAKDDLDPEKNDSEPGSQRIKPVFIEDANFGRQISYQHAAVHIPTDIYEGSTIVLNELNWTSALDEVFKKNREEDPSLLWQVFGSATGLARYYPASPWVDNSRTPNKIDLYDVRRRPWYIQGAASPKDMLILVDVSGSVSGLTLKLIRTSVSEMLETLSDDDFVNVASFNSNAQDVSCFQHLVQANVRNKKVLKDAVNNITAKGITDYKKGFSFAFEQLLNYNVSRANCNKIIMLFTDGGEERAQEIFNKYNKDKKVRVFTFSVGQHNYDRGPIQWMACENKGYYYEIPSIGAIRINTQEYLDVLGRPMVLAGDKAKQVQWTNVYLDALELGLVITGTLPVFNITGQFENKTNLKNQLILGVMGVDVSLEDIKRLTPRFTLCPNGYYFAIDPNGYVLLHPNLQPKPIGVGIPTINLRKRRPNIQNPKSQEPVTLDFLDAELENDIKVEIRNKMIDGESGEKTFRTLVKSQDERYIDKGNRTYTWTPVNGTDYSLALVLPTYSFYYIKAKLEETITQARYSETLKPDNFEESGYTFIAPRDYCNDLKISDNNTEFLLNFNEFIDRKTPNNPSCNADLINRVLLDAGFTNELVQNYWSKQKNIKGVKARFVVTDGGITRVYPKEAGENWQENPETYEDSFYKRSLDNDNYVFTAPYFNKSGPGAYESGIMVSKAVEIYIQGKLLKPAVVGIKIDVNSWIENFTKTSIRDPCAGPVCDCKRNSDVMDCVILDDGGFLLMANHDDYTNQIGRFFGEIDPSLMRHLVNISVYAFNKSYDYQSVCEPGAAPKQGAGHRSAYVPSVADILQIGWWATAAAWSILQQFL
Sequence (P54289 947-1103 partner limits assumed): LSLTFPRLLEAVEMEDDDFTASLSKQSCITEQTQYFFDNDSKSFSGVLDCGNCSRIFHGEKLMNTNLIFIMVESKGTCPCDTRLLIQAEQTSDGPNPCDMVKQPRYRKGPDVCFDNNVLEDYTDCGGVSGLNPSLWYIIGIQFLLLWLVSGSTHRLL
TEST NAME: Measurement of N-type Ca2+ channel blocking potencies in IMR-32 cells using the fluorescent Ca2+ indicator Indo-1
Type: cell-based
ASSAY CONDITIONS: 10 μM; IMR-32 cells, 5 μM nitrendipine
Reply with just the number (in %).

// known answers, use as guide
[
  {
    "COMPOUND": "CC(C)CCN(C)[C@@H](CC(C)C)C(=O)N[C@@H](Cc1ccc(OCc2ccccc2)cc1)C(=O)N1CCCCC1 (relative stereo)",
    "IMR 32 % of Blockade @ 10 μM [%]": 87
  },
  {
    "COMPOUND": "CC(C)C[C@@H](C(=O)N[C@@H](Cc1ccc(OCc2ccccc2)cc1)C(=O)N1CCCCC1)N(C)Cc1ccc(C(C)(C)C)cc1 (relative stereo)",
    "IMR 32 % of Blockade @ 10 μM [%]": 85
  }
]

We next turn to a different compound, shown below.
Value of IMR 32 % of Blockade @ 10 μM reported for the compound CC(C)C[C@@H](C(=O)N[C@@H](Cc1ccc(OCc2ccccc2)cc1)C(=O)N1CCN(Cc2ccccc2)CC1)N(C)C1CCCCC1 (relative stereo) is 87
